Measured on: IGF-1 receptor on the cells of the PathHunter IGF1R Functional Assay (DiscoverX) (UniProt P08069 31-1367)
Sequence (P08069 31-1367): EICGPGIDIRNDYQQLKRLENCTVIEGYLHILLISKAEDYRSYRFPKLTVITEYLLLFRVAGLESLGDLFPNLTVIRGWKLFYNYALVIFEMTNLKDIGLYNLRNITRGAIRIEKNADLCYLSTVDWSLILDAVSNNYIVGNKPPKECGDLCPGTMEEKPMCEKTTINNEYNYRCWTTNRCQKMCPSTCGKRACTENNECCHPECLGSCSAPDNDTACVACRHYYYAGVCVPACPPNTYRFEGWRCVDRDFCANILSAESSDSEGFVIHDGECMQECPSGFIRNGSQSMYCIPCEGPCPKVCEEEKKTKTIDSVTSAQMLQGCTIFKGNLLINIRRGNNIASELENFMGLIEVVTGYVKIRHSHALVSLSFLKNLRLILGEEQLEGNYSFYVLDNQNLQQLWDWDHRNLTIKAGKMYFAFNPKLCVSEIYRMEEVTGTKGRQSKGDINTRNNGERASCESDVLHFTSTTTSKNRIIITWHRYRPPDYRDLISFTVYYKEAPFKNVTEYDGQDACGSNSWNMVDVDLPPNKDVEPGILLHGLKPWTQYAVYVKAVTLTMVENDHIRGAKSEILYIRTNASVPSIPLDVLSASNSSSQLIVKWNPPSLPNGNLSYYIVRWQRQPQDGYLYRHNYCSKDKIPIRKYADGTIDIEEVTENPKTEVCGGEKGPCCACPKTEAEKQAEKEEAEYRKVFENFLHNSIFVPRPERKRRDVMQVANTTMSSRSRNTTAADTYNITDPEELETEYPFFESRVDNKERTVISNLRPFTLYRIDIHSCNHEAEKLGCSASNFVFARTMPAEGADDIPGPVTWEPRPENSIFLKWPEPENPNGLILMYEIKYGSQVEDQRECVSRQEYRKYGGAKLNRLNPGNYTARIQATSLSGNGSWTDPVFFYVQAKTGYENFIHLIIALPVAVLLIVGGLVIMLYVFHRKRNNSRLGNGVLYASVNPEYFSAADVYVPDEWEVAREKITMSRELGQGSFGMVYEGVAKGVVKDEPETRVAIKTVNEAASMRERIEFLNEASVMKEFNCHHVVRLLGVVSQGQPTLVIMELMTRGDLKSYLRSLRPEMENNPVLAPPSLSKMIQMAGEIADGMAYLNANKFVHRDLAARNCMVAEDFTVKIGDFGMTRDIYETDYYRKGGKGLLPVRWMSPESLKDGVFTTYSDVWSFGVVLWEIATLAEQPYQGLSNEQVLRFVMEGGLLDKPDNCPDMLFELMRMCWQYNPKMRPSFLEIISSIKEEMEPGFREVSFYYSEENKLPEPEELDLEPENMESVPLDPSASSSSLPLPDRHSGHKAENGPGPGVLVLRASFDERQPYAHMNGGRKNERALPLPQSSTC
Measurement description: cell-based or functional assay
Endpoint name: Signal intensity ratio (compared to IGF11-16) at 16.7 nM, PathHunter

// Signal intensity ratio (compared to IGF11-16) at 16.7 nM, PathHunter lookup, key: FW1_var9-hH1a (antibody, V domains shown) VH: QIQLVQSGAEVKKPGASVKVSCKASGYTFTSYWMHWVRQAPGQGLEWMGETNPSNSVTNYAQKFQGRVTLTVDTSTSTAYMELSSLRSEDTAVYYCTIGRGRGFAYWGQGTLVTVSS VL: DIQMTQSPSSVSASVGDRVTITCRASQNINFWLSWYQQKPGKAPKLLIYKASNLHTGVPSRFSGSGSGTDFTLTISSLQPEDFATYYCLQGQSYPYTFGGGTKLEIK 0.7 ratio to IGF11-16

Need Signal intensity ratio (compared to IGF11-16) at 16.7 nM, PathHunter, item FW1_var1 antibody (antibody, V domains shown) VH: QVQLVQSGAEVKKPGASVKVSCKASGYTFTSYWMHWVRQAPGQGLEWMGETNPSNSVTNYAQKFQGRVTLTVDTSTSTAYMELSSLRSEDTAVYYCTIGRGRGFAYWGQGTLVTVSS VL: DIQMTQSPSSVSASVGDRVTITCRASQNINFWLSWCQQKPGKIPKLLIYKASNLHTGVPSRFSGSGSGTDFTLTISSLQPEDFATYYCLQGQSYPYTFGGGTKLEIK 0.66 ratio to IGF11-16

Query: Signal intensity ratio (compared to IGF11-16) at 16.7 nM, PathHunter; subject: FW1_var9-hH3a (antibody, V domains shown) VH: QVQLVQPGAEVKKPGASVKVSCKASGYTFTSYWMHWVRQAPGQGLEWMGETNPSNSVTNYAQKFQGRVTLTVDTSTSTAYMELSSLRSEDTAVYYCTIGRGRGFAYWGQGTLVTVSS VL: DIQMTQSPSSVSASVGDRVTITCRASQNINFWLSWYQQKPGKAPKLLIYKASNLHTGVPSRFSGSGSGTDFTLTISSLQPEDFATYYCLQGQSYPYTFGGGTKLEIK 0.6 ratio to IGF11-16

Recorded Signal intensity ratio (compared to IGF11-16) at 16.7 nM, PathHunter for FW1_var9-hH2a (antibody, V domains shown) VH: QVQLQQSGAEVKKPGASVKVSCKASGYTFTSYWMHWVRQAPGQGLEWMGETNPSNSVTNYAQKFQGRVTLTVDTSTSTAYMELSSLRSEDTAVYYCTIGRGRGFAYWGQGTLVTVSS VL: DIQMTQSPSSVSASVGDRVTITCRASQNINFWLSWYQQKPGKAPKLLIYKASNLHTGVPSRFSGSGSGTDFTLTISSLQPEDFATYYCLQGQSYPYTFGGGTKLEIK , please? 0.54 ratio to IGF11-16

Which value of Signal intensity ratio (compared to IGF11-16) at 16.7 nM, PathHunter has been reported for FW1_var9-hH7a (antibody, V domains shown) VH: QVQLVQSGAEVKKPGASVKVSCKAPGYTFTSYWMHWVRQAPGQGLEWMGETNPSNSVTNYAQKFQGRVTLTVDTSTSTAYMELSSLRSEDTAVYYCTIGRGRGFAYWGQGTLVTVSS VL: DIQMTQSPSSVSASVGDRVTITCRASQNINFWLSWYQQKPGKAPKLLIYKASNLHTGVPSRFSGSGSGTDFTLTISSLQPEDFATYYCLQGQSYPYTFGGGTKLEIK in the records? 1.09 ratio to IGF11-16

GET /values?readout=Signal intensity ratio (compared to IGF11-16) at 16.7 nM, PathHunter&item= mouse parent antibody IGF11-16 (antibody, mouse IgG1, kappa, V domains shown) VH: QIQLQQPGAELVKPGASVKLSCKAPGYTFTSYWMHWVKQRPGQGLEWIGETNPSNSVTNYNEKFKSKATLTVDKSSSTAYMQLSSLTSEDSAVYYCTIGRGRGFAYWGQGTLVTVSA VL: DIQMNQSPSSLSASLGDTITITCRASQNINFWLSWCQQKPGNIPKLLIYKASNLHTGVPSRFSGSGSGTDFTLTISSLQPEDIATYYCLQGQSYPYTFGGGTKLEIKR 1 ratio to IGF11-16
